List of pKi tested on Adenosine receptor A2a (Sus scrofa).
pKi: −log10 of the molar value.
PROPERTY_MEASURED: pKi

Answered examples (3):
smiles_input=COc1ccc(-c2cnn(-c3nc(N)c4ncn([C@@H]5O[C@H](CO)[C@@H](O)[C@H]5O)c4n3)c2)cc1 property_measured=pKi measurement=6.25
smiles_input=CCCCCn1cc(-c2nc(N)c3ncn([C@@H]4O[C@H](CO)[C@@H](O)[C@H]4O)c3n2)cn1 property_measured=pKi measurement=5.67
smiles_input=C=CCCCn1cc(-c2nc(N)c3ncn([C@@H]4O[C@H](CO)[C@@H](O)[C@H]4O)c3n2)cn1 property_measured=pKi measurement=5.77

[I] CN(C)C(=O)c1cnn(-c2nc(N)c3ncn([C@@H]4O[C@H](CO)[C@@H](O)[C@H]4O)c3n2)c1
[II] CC(C)(C)c1ccc(Cn2cc(-c3nc(N)c4ncn([C@@H]5O[C@H](CO)[C@@H](O)[C@H]5O)c4n3)cn2)cc1
[III] Nc1nc(-c2cnn(CCc3ccccc3)c2)nc2c1ncn2[C@@H]1O[C@H](CO)[C@@H](O)[C@H]1O
[IV] CCCNC(=O)c1cnn(-c2nc(N)c3ncn([C@@H]4O[C@H](CO)[C@@H](O)[C@H]4O)c3n2)c1
(Q) Sort the 4 molecules by pKi; largest first, smallest last. When ranking, write the labels in the order the request describes.
(A) IV, I, II, III
(IV: 6.92, I: 6.36, II: 5.62, III: 5.23)

Value source: ChEMBL document CHEMBL1134910
